Cited source: paper PMC11108815

Give AUC(0-inf) for every item shown.
assay: Pharmacokinetics in rat plasma; type: in vivo, Wistar rats; details: Wistar, rat, plasma, po, 100 mg/kg, AUC0-∞, FS-C: normal (blank) rats, oral FS 100 mg kg^−1, n = 6
State just the number; it will be interpreted in ng·h/mL.

Record summary for O=C(/C=C/c1ccc(O)c2c1[C@H](C(=O)O)[C@@H](c1ccc(O)c(O)c1)O2)O[C@H](Cc1ccc(O)c(O)c1)C(=O)O : reported AUC(0-inf) = 164

Record summary for O=C(/C=C/c1ccc(O)c(O)c1/C=C/c1ccc(O)c(O)c1)O[C@H](Cc1ccc(O)c(O)c1)C(=O)O : reported AUC(0-inf) = 168

Record summary for O=C(O)/C=C/c1ccc(O)c(O)c1 : reported AUC(0-inf) = 40.5

Record summary for O=C(/C=C/c1ccc(O)c(O)c1)O[C@H](Cc1ccc(O)c(O)c1)C(=O)O : reported AUC(0-inf) = 222
